Exercise: state measured pIC50 for each of the compounds provided.
target-of-assay: Avi-KRAS G12D (1-169) GppNHp/RAF1 RBD-3×FLAG (52-151) (Homo sapiens, UniProt P01116, G12D)
Construct: Avi-KRAS G12D (1-169) GppNHp
Sequence (P01116 1-169 isoform P01116-2 G12D limits assumed): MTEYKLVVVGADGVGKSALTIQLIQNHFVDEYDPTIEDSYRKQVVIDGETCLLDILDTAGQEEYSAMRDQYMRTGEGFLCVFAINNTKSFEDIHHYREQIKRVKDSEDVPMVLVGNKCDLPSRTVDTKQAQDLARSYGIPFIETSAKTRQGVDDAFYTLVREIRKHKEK
assay-info: HTRF Raf1-KRAS G12D-GppNHp disruption assay
Assay type: biochemical
condition-details: 1 h incubation
pIC50: −log10 of the molar value.

The examples below pair each entry with its known result.
compound=CN1CCC[C@H]1COc1nc(N(CCC#N)C2CN(C(=O)CN)C2)c2cc(Cl)c(-c3ccc(F)c4sc(N)nc34)c(F)c2n1 property_name=pIC50 recorded_result="4.52 to 5.00"
compound="Nc1nc2c(-c3c(C(F)(F)F)cc4c(N5CC6CCC(C5)N6)nc(OC[C@@]56CCCN5C[C@H](F)C6)nc4c3F)ccc(F)c2s1 (single isomer, unassigned) [Compound 246]" property_name=pIC50 recorded_result="5.00 to 6.00"
compound=CN1CCC[C@H]1COc1nc(NC2CNC2)c2cc(C(F)(F)F)c(-c3ccc(F)c4sc(N)nc34)c(F)c2n1 property_name=pIC50 recorded_result="6.00 to 7.00"

# batch size: 8; output pIC50 per entry
1. N#Cc1c(N)sc2c(F)ccc(-c3c(C(F)(F)F)cc4c(N5CC6CCC(C5)N6)nc(OC[C@@]56CCCN5C[C@H](F)C6)nc4c3F)c12 (single isomer, unassigned) [Compound 366]
2. C[C@@H]1CN(c2nc(OC[C@@]34CCCN3C[C@H](F)C4)nc3c(F)c(-c4ccc(F)c5sc(N)nc45)c(C(F)(F)F)cc23)[C@@H](C)CN1
3. CN(c1nc(OC[C@@]23CCCN2C[C@H](F)C3)nc2cc(-c3ccc(F)c4sc(N)c(C#N)c34)c(C(F)(F)F)cc12)[C@H]1CNC[C@H]1F
4. CC(=O)NCCNc1nc(OC[C@@H]2CCCN2C)nc2c(F)c(-c3ccc(F)c4sc(N)nc34)c(Cl)cc12
5. C[C@@H]1CN(c2nc(OC[C@@]34CCCN3C[C@@H](F)C4)nc3c(F)c(-c4ccc(F)c5sc(N)nc45)c(C(F)(F)F)cc23)[C@@H](C)CN1
6. NCCNc1nc(OCC23CCCN2CCC3)nc2c(F)c(-c3ccc(F)c4sc(N)nc34)c(Cl)cc12
7. CNc1nc2c(-c3c(Cl)cc4c(NCCN)nc(OC[C@@H]5CCCN5C)nc4c3F)ccc(F)c2s1
8. CN1C[C@H](F)C[C@H]1COc1nc(NC2CNC2)c2cc(-c3ccoc3)c(-c3ccc(F)c4sc(N)nc34)c(F)c2n1

output:
1: ≥ 7.00; 2: 6.00 to 7.00; 3: 6.00 to 7.00; 4: 4.52 to 5.00; 5: 4.52 to 5.00; 6: 5.00 to 6.00; 7: 4.52 to 5.00; 8: 5.00 to 6.00

// each listed compound needs a value for pIC50
1. C[C@@H]1CN(c2nc(OC[C@]34CCCN3C[C@H](F)C4)nc3c(F)c(-c4ccc(F)c5sc(N)nc45)c(C(F)(F)F)cc23)[C@@H](C)CN1
2. CN1C[C@H](F)C[C@H]1COc1nc(NC2CNC2)c2cc(Cl)c(-c3ccc(F)c4sc(N)nc34)c(F)c2n1

output:
["6.00 to 7.00", "5.00 to 6.00"]
